- Test system: SK-MEL-2 melanoma
- assay_details: NCI tumour cell line growth inhibition, 48 h
measurement_kind: GI50

As a guide, the following entries are already answered.
[[record]]
molecule = "O=C(CCN1CCCC1)Nc1ccc2c(Nc3ccc(Br)cc3)c3ccccc3nc2c1"
measurement_kind = "GI50"
recorded_measurement = "1.98 µM"

[[record]]
molecule = "CCOC1Oc2ccccc2C(=O)/C1=C\\Nc1ccc(C(=O)O)c(O)c1 (stereo unspecified)"
measurement_kind = "GI50"
recorded_measurement = "46.7 µM"

[[record]]
molecule = "N#Cc1ccc(C(=O)c2cnn(-c3ccc(F)cc3)c2N)cc1"
measurement_kind = "GI50"
recorded_measurement = "> 25 µM"

[[record]]
molecule = "COc1ccccc1-c1ccc2c(N)c(C(=O)c3ccc4c(c3)OCO4)sc2n1"
measurement_kind = "GI50"
recorded_measurement = "3.38 µM"

[[record]]
molecule = "COc1ccc(Cl)cc1Nc1nc(C(F)(F)F)ccc1C(=O)N/N=C/c1ccccc1Cl"
measurement_kind = "GI50"
recorded_measurement = "3.45 µM"


# ---- query molecule ----
Item: "COc1ccc2c(c1)C(=O)/C(=C/c1cccc(OCC(=O)c3ccc([N+](=O)[O-])cc3)c1)CO2" | System: SK-MEL-2 melanoma | GI50: 1.64 µM

---

- Tested on: LOX IMVI melanoma
- assay_details: NCI tumour cell line growth inhibition, 48 h; in the data active means GI50 below about 0.43 µM; inactive means the rest
# valid calls are active, inactive; nothing else

These recorded examples may help you get a feel for the data.
[[record]]
compound = "O=C1NC(c2cccc3ccccc23)Nc2ccccc21 (centres undefined)"
category = "active"

[[record]]
compound = "CN(C)c1ccc(/C=N/n2c(CCCCc3n[nH]c(=S)n3/N=C/c3ccc(N(C)C)cc3)n[nH]c2=S)cc1"
category = "inactive"

[[record]]
compound = "N#Cc1ccc(O)c(C2=NCC(c3ccc(-c4ccccc4)cc3)O2)c1 (centres undefined)"
category = "active"


What is the recorded call for this compound in the test? "Cc1cnc(-c2ccc(-c3ccc(NC(=O)Nc4cccc(C(F)(F)F)c4)cc3F)c3c2C(=O)NC3)[nH]1" active

---

Each entry below carries its reported TGI.
- Test system: SF-539 CNS
- assay_details: NCI tumour cell line growth inhibition, 48 h
Where a SMILES comes first, the peptide text is derived from it. Bridges are numbered along the chain shown (N, C = ends).

[[record]]
compound = "Cc1ccc2c(c1)C(=O)/C(=C/c1cccc(OCC(=O)c3ccc(Cl)cc3)c1)CS2"
recorded_measurement = "36.6 µM"


The compound "COc1cc2c(cc1OC)-c1c(c3ccc([N+](=O)[O-])cc3c(=O)n1CCCN=[N+]=[N-])C2=O" showed TGI equal to > 100 µM

// COc1cc2c(cc1OC)-c1cc3cc(OC)c(OC)cc3c(C)[n+]1CC2 (tested in a mixture with another compound) : TGI value = > 100 µM

Recorded result, C[C@H]1[C@H](C)CC[C@]2(C(=O)O)CCC3(COC(=O)/C=C/c4ccc(O)cc4)C(=CCC4[C@@]5(C)CC[C@H](O)C(C)(C)C5CC[C@]43C)[C@H]12 (stereo partly specified) , TGI: 16.5 µM

Sure, the documented TGI for "CCN(CC)CCC(=O)Nc1ccc2sc3ccccc3c(=O)c2n1" is 33.4 µM

Sample CCOC(OCC)[C@@H]1C[C@@H]2N(O[C@H](OC3CCCC3(c3ccccc3)c3ccccc3)[C@H](OC(C)=O)[C@@]2(CC)Cc2ccc(OC)c(OC)c2)O1 (stereo partly specified) ; TGI observed: > 100 µM

Value of TGI reported for the compound Cc1ccc(-c2nc3ccccc3c(=O)n2NC2OC(CO)C(O)C(O)C2O)cc1 (stereo unspecified) is > 100 µM

Record CC(=O)C(C(=O)C(=O)Nc1cc(Cl)c(Cl)cc1Cl)c1csc(N)n1 (stereo unspecified) . Reported TGI: > 100 µM

TGI reported for this compound COC1/C=C/OC2(C)Oc3c(C)c(O)c4c(O)c(c(/C=N/N(c5ccccc5)c5ccccc5)c(O)c4c3C2=O)NC(=O)C(C)=C/C=C/C(C)C(O)C(C)C(O)C(C)C(OC(C)=O)C1C (stereo unspecified) : 4.7 µM

Entry O=[N+]([O-])c1ccc(C2NC(=S)NC3c4cc([N+](=O)[O-])ccc4CCCC23)cc1 (stereo unspecified) , TGI reported as > 100 µM

Record summary for CCC(C)C1NC(=O)C(CC(C)C)NC(=O)C(C(C)C)NC(=O)C2CSSCC(NC1=O)C(=O)N2 (stereo unspecified) (cyclo(CCVLI); disulfide 1-2; configuration not given here) : reported TGI = 0.316 µM

The recorded TGI for entry CCN(CC)CCOc1ccc(NC(=O)C(C(C)C)N2C(=O)/C(=C/c3ccc(Br)cc3)SC2=S)cc1 (stereo unspecified) equals 3.55 µM

---

- Tested on: MDA-N
- assay_details: NCI tumour cell line growth inhibition, 48 h
Where a SMILES comes first, the peptide text is derived from it. Bridges are numbered along the chain shown (N, C = ends).
Below, each entry is listed with its recorded TGI.
// return numeric value only (unit: µM, not printed)

Consider the worked cases shown below.
[[record]]
compound = "CC(C)C1CCC(=O)CC1CCCCC1CC(=O)CC1O[Si](C)(C)C(C)(C)C (stereo unspecified)"
units_text = "µM"
recorded_measurement = 21.1

[[record]]
compound = "Cc1ccc(/C=C2\\CCS(=O)(=O)c3ccccc3C2=O)cc1"
units_text = "µM"
recorded_measurement = 77.2

[[record]]
compound = "CC(=O)Oc1ccc(C)c2c1[C@H]1CC[C@]3(C)[C@@H](OC(C)=O)CC[C@H]3[C@@H]1CC2"
units_text = "µM"
recorded_measurement = 36.8


For this compound ( "c1cc2cc(Cc3ccc4[nH]ccc4c3)ccc2[nH]1" ), measured TGI is 26.5

Entry CCC(C)C1NC(=O)C(CC(C)C)NC(=O)C(C(C)C)NC(=O)C2CSSCC(NC1=O)C(=O)N2 (stereo unspecified) (cyclo(CCVLI); disulfide 1-2; configuration not given here) ; TGI = 0.339

Measured TGI, "CC1=C(N2CC2)C(=O)C(C)=C(N2CC2)C1=O" : 2.9

Per the record, "O=C(NCCCN1CCN(CCCNC(=O)c2cc(-c3ccccc3)nc3ccccc23)CC1)c1cc(-c2ccccc2)nc2ccccc12" has TGI of 20.4

The measured TGI associated with "CCN(CC)CCC(=O)Nc1ccc2sc3ccccc3c(=O)c2n1" reads 30.3

Record "COc1ccc2nc3c([N+](=O)[O-])ccc4c3c(c2c1)N=CN4CCN(C)C" . Reported TGI: 16.9

Record "C[N+]1(C)C/C(=C\C=C\c2ccccc2)C(=O)/C(=C/C=C/c2ccccc2)C1" , field TGI: 11.1

get_value(item= "O=C(/C=C/c1ccc(O)c(O)c1)c1ccc(O)cc1O" , readout=TGI) returns 19.8

Recorded result, COc1cc(C2SCC(=O)N2c2ccc(Cl)cc2)cc(OC)c1OC (stereo unspecified) , TGI: 20.9

Reported TGI for "N#Cc1c2c(c(Nc3cccc(C(F)(F)F)c3)n3c1nc1ccccc13)CCCC2" was 56.7

Field TGI (entry "CN(CCCNC(=O)c1cn(C)c2c1ccc1ccccc12)CCCNC(=O)c1cn(C)c2c1ccc1ccccc12" ) reads 2.76

---

- System: HOP-62 NSCLC
- assay_details: NCI tumour cell line growth inhibition, 48 h; in the data active means GI50 below about 0.43 µM; inactive means the rest
// one of active, inactive, no free text

A selection of reference data follows.
[[record]]
compound = "Cc1cc(C(=O)CC(Cl)=C(Cl)Cl)c(Cl)cc1Cl"
category = "inactive"

[[record]]
compound = "CCCn1cc(/C=N\\N=C2\\C(=O)Nc3ccc(C)cc32)c2ccccc21"
category = "inactive"

[[record]]
compound = "O=C1c2c(c3c4ccccc4n(CCCCCCN4CCOCC4)c3c3[nH]c4ccccc4c23)C(=O)N1O"
category = "inactive"

[[record]]
compound = "COc1cc2c(cc1OC)-c1c(c3ccc([N+](=O)[O-])cc3c(=O)n1CCCN=[N+]=[N-])C2=O"
category = "inactive"

[[record]]
compound = "CCN(CC)CCOc1ccc(NC(=O)C(C(C)C)N2C(=O)/C(=C/c3ccc(Br)cc3)SC2=S)cc1 (configuration not stated)"
category = "inactive"

[[record]]
compound = "COc1cc(Cn2c3ccccc3c3cc(C)cc(OC)c32)cc2c1[nH]c1ccccc12"
category = "inactive"

[[record]]
compound = "COc1cc(C(=O)c2cnc(-c3ccc4cc[nH]c4c3)[nH]2)cc(OC)c1OC"
category = "active"

[[record]]
compound = "C#Cc1cccc(Nc2ncnc3ccc(-c4cnc(N)nc4)cc23)c1"
category = "inactive"

[[record]]
compound = "CCc1c2c(nc3ccc(OC(=O)OCc4ccc(B5OC(C)(C)C(C)(C)O5)cc4)cc13)-c1cc3c(c(=O)n1C2)COC(=O)[C@]3(O)CC"
category = "active"

[[record]]
compound = "Cc1cc2oc(=O)cc(OC/C=C3/CCC(=O)O3)c2cc1C"
category = "inactive"


Each compound tested received a call. Report the one for "Cc1nccc2c3ccc(OCc4cn(-c5ccc(Br)cc5)nn4)cc3n(CCCc3ccccc3)c12" . inactive

State the result this test recorded for "O=C(C(=O)c1cccnc1)c1cccnc1" . inactive
